Listed here: compounds with reported Kd for Ribosomal protein S6 kinase alpha-6 (Homo sapiens, UniProt Q9UK32).
The source made the active and inactive calls.

entry-smiles	Kd
C[C@]1(O)C[C@@H](c2nc(-c3ccc4ccc(-c5ccccc5)nc4c3)c3c(N)nccn32)C1	> 30 µM (inactive)
O=C(O)c1ccc2c(c1)nc(Nc1cccc(Cl)c1)c1ccncc12	3.42 µM (active)
CCN(CCCOc1ccc2c(Nc3cc(CC(=O)Nc4cccc(F)c4)n[nH]3)ncnc2c1)CCOP(=O)(O)O	> 30 µM (inactive)
Cn1cc(-c2[nH]c3cc(NC(=O)[C@H](N)C4CCCCC4)cc4c3c2C=NNC4=O)cn1	2.38 µM (active)
O=C(NOC[C@H](O)CO)c1ccc(F)c(F)c1Nc1ccc(I)cc1F	> 30 µM (inactive)
C#Cc1cccc(Nc2ncnc3cc4c(cc23)OCCOCCOCCO4)c1	> 30 µM (inactive)
Cc1cc(Nc2nc(N[C@@H](C)c3ncc(F)cn3)ncc2Cl)n[nH]1	> 30 µM (inactive)
COc1ccc2c(OCc3nnc4ccc(-c5ccccc5)nn34)ccnc2c1	> 30 µM (inactive)
CNC(=O)c1ccc(Nc2ncc(C(F)(F)F)c(NCc3nccnc3N(C)S(C)(=O)=O)n2)cc1	> 30 µM (inactive)

---

Target: Cyclin-dependent kinase 5 (Homo sapiens); also: in the data inactive means no Kd found up to 30 µM
Sequence (Q00535 whole entry): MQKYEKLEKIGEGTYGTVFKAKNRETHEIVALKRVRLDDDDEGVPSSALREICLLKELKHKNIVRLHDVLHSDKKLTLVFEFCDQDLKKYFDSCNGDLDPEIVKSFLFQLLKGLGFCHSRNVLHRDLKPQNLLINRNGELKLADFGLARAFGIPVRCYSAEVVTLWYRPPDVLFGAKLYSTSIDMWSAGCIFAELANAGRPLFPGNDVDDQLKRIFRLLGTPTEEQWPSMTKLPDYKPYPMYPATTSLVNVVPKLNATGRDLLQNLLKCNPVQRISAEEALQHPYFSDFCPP
Calls of active or inactive are those of the source.
Outcomes: 1 = active, 0 = inactive

entry-smiles	group-label
CC[C@@](C)(Nc1ccnc(-c2c[nH]c3ncccc23)n1)C(=O)NCC(F)(F)F	0
S=C(NCc1ccc2c(c1)OCO2)N1CCN(c2ncnc3c2oc2ccccc23)CC1	0
O=c1[nH]c([C@@H]2CCCN2)nc2c1oc1ccc(Cl)cc12	0
O=C(O)c1ccc2c(c1)nc(Nc1cccc(Cl)c1)c1ccncc12	1
CCc1cc2c(cc1N1CCC(N3CCOCC3)CC1)C(C)(C)c1[nH]c3cc(C#N)ccc3c1C2=O	0
CNC(=O)c1cc(COc2nnc(Nc3ccc(Cl)cc3)c3ccoc23)ccn1	0
CCOc1ccn(-c2ccc(F)cc2)c(=O)c1C(=O)Nc1ccc(Oc2ccnc(N)c2Cl)c(F)c1	0
COc1cccc2cc(-c3nc([C@H]4CC[C@H](C(=O)O)CC4)n4ncnc(N)c34)[nH]c12	0

---

Target: AarF domain-containing protein kinase 1 (Homo sapiens, UniProt Q86TW2); also: in the data inactive means no Kd found up to 30 µM
Sequence (Q86TW2 whole entry, the tested form may be a part): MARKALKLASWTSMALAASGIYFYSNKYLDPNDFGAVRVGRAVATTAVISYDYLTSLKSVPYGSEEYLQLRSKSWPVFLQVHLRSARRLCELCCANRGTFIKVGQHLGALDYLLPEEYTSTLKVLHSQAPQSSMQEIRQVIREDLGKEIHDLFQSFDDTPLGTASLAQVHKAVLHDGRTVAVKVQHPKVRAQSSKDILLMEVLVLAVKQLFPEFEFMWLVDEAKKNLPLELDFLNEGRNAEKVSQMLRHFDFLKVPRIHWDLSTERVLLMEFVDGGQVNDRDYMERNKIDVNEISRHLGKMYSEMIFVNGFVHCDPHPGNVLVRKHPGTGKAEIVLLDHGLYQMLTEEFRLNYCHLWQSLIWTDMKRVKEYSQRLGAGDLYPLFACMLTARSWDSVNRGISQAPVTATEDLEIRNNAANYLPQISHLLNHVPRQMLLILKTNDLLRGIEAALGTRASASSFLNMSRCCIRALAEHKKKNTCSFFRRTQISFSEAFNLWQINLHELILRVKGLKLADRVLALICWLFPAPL
Activity calls are given as the source filed them.
Outcomes: active, inactive

compound	group-label
S=C(NCc1ccc2c(c1)OCO2)N1CCN(c2ncnc3c2oc2ccccc23)CC1	inactive
Cc1ccc(C(=O)Nc2ccc(Oc3cc4cnn(C)c4cc3-c3cn[nH]c3)c(F)c2)c(=O)n1-c1ccc(F)cc1	inactive
O=C(O)c1ccc2c(c1)nc(Nc1cccc(Cl)c1)c1ccncc12	inactive
C#Cc1cccc(Nc2ncnc3cc4c(cc23)OCCOCCOCCO4)c1	inactive
CCc1nc(C(N)=O)c(Nc2ccc(N3CCC(N4CCN(C)CC4)CC3)c(OC)c2)nc1NC1CCOCC1	active
CC(C)CC(=O)Nc1[nH]nc2c1CN(C(=O)C1CCN(C)CC1)C2(C)C	inactive
COc1cc2nccc(Oc3ccc(NC(=O)C4(C(=O)Nc5ccc(F)cc5)CC4)cc3)c2cc1OC [CABOZANTINIB]	inactive
NC[C@@](O)(c1ccc(Cl)cc1)c1ccc(-c2cn[nH]c2)cc1	inactive
CCOc1ccn(-c2ccc(F)cc2)c(=O)c1C(=O)Nc1ccc(Oc2ccnc(N)c2Cl)c(F)c1	inactive
CN(c1ncccc1CNc1nc(Nc2ccc3c(c2)CC(=O)N3)ncc1C(F)(F)F)S(C)(=O)=O	inactive
CC(C)(O)CC(=O)NCCn1ccc2ncnc(Nc3ccc(Oc4cccc(C(F)(F)F)c4)c(Cl)c3)c21	inactive
O=S(=O)(c1cccc2c(O)nccc12)N1CCCNCC1 [HYDROXYFASUDIL]	inactive
C[C@@]1(C(=O)Nc2ccc(F)nc2)CCCN1c1nc(Nc2cc(C3CC3)n[nH]2)c2cccn2n1	inactive
O=S(=O)(c1cccc2cnccc12)N1CCCNCC1	inactive
FC(F)(F)c1ccc(CNc2ccc(Cc3c[nH]c4ncc(Cl)cc34)cn2)cn1	inactive

---

Molecular target: Breakpoint cluster region protein (Homo sapiens, UniProt P11274); also: in the data inactive means no Kd found up to 30 µM
Sequence (P11274 whole entry): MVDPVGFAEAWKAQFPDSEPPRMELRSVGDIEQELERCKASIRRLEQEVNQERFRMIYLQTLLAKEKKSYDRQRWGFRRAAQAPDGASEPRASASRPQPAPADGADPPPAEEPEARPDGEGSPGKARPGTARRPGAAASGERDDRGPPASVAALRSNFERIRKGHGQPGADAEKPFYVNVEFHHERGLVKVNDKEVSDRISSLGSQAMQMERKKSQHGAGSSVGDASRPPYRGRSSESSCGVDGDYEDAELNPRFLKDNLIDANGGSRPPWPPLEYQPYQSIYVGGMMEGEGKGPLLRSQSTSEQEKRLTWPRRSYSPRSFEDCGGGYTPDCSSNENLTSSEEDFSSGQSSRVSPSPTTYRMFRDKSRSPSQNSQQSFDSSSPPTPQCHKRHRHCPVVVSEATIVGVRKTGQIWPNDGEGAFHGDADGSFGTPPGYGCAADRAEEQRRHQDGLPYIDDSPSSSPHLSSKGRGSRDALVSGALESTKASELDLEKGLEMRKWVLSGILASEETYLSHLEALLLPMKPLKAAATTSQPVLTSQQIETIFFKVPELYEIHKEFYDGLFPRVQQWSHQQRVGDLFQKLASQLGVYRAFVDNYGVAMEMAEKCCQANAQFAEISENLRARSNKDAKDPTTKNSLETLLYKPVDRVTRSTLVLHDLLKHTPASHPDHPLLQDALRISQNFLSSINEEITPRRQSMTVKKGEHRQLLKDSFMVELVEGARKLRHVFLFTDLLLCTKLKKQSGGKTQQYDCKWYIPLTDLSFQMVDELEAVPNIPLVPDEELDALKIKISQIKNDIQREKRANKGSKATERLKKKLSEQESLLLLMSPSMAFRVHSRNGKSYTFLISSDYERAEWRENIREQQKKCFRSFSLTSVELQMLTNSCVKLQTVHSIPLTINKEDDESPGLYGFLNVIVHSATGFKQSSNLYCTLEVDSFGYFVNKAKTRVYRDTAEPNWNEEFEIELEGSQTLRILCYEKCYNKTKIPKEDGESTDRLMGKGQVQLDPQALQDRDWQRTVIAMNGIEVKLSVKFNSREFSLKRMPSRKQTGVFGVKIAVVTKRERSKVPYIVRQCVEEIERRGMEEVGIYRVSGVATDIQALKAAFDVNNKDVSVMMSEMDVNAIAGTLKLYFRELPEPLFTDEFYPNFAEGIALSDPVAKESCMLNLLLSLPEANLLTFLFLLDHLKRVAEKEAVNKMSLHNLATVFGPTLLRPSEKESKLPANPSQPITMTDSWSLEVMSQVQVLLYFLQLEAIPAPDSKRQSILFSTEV
Calls of active or inactive are those of the source.

entry-smiles	Kd
C[C@]1(O)C[C@@H](c2nc(-c3ccc4ccc(-c5ccccc5)nc4c3)c3c(N)nccn32)C1	> 30 µM (inactive)
CNC(=O)c1ccc(Nc2ncc(C(F)(F)F)c(NCc3nccnc3N(C)S(C)(=O)=O)n2)cc1	> 30 µM (inactive)
c1cc(OCCN2CCCCC2)cc(-c2n[nH]c3ccc(-c4nc[nH]n4)cc23)c1	> 30 µM (inactive)
Cc1c(Cn2c(C)nc3c(C(=O)O)cc(N4CCOCC4)cc32)cccc1C(F)(F)F	> 30 µM (inactive)
COc1cc2ncnc3c2cc1OCCCCCN(C)Cc1ccc(Br)cc1N3	> 30 µM (inactive)
NC[C@@](O)(c1ccc(Cl)cc1)c1ccc(-c2cn[nH]c2)cc1	> 30 µM (inactive)
CNC(=O)c1cc(COc2nnc(Nc3ccc(Cl)cc3)c3ccoc23)ccn1	> 30 µM (inactive)
O=C(O)c1ccc2c(c1)nc(Nc1cccc(Cl)c1)c1ccncc12	> 30 µM (inactive)
O[C@H]1CC[C@H](Nc2ncc3nc(Nc4c(F)cc(F)cc4F)n([C@H]4CCOC4)c3n2)CC1	> 30 µM (inactive)

---

Protein target, amino acids: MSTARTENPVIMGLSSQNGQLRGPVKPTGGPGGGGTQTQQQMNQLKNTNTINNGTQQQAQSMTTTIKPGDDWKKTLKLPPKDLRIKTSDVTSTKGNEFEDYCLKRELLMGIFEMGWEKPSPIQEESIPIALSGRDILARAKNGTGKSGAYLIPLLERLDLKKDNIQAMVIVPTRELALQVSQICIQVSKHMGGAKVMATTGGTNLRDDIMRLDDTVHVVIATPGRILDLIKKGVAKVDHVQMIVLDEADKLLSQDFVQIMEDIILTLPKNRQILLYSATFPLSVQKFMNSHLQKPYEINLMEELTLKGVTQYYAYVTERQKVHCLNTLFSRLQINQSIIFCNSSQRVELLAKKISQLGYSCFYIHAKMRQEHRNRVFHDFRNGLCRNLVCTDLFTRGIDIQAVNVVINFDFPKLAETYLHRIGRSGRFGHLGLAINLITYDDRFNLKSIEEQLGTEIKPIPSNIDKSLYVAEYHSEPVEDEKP
Calls of active or inactive are those of the source.
property: Kd

compound	property	reported-value
CCc1nc(C(N)=O)c(Nc2ccc(N3CCC(N4CCN(C)CC4)CC3)c(OC)c2)nc1NC1CCOCC1 [GILTERITINIB]	Kd	> 30 µM (inactive)
CCc1cc2c(cc1N1CCC(N3CCOCC3)CC1)C(C)(C)c1[nH]c3cc(C#N)ccc3c1C2=O [ALECTINIB]	Kd	> 30 µM (inactive)
COc1ccc2c(OCc3nnc4ccc(-c5ccccc5)nn34)ccnc2c1 [AMG-208]	Kd	> 30 µM (inactive)
CN1CCN(c2nc(C3=C(c4c[nH]c5ccccc45)C(=O)NC3=O)c3ccccc3n2)CC1 [SOTRASTAURIN]	Kd	> 30 µM (inactive)
